Delta (One Dose Mean Graph) values by entry
# Tested on: panel of 60 human cancer cell lines
# measurement.description: NCI 60 cell panel one dose screen (whole panel)
# Type: cell-based
# Parameters: unit not given here
# run.conditions: 1.00E-5 Molar one dose
Give the figure only, with no unit attached.

Worked examples follow.
Could you please provide reported Delta (One Dose Mean Graph) for COc1cccc(CNC(=O)[C@@H]2CS[C@H]3c4ccccc4C(=O)N23)c1 ? Thanks!
27.47

Please report the measured Delta (One Dose Mean Graph) for COc1ccc(CNC(=O)[C@@H]2CS[C@H]3c4ccccc4C(=O)N23)cc1OC
34.91

Please give the documented Delta (One Dose Mean Graph) of COc1cccc(CNC(=O)[C@@H]2CS[C@@]3(C)c4ccccc4C(=O)N23)c1
31.41

Give the measured Delta (One Dose Mean Graph) for O=C(NCc1ccc(Cl)cc1Cl)[C@@H]1CS[C@H]2c3ccccc3C(=O)N12
24.18

Using the record for O=C(NCc1ccccc1C(F)(F)F)[C@@H]1CS[C@H]2c3ccccc3C(=O)N12 , state its measured Delta (One Dose Mean Graph).
21.44

Consider now this further molecule.
Report Delta (One Dose Mean Graph) for C[C@@]12SC[C@@H](C(=O)NCc3ccccc3C(F)(F)F)N1C(=O)c1ccccc12
25.73
